Data origin, for the record: patent US20070243589A1

# system tested: T1, biotinylated IL-22 with an N-terminal His/FLAG tag (bio.IL-22H/F) (human, UniProt Q9GZX6 34-179, biotinylated (site not stated))
# T1 construct: not shown: N-terminal His/FLAG tag
# T1 sequence: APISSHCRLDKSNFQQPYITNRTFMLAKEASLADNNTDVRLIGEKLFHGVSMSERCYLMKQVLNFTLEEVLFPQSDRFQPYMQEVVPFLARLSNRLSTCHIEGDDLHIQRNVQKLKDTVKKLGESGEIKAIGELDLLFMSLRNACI
# assay summary: IL-22 receptor complex inhibition assay (bio.IL-22H/F binding to IL-22 receptor complex, DELFIA), IgG
parameter: IC50 (nM)
Dear colleague, please return just the value in nM, with no unit written.

1. GIL60 IgG (non-germlined parent) (antibody, V domains shown, Human IgG4 heavy chain constant domain) VH: EVQLVESGGGVVRPGGSLRLSCAASGFTFDDYGMNWVRQAPGKGLEWVSGVNWNGGTRDYAASVKGRFTISRDNAKNSLYLQMNSLRAEDTALYYCARGWYSGSFYYFGYWGRGTLVTVSS VL: QAVLTQPSSVSGSPGQSITISCTGASGDVGAYNFVSWYQQHPGKTPKLIIYDVNKRPSGVSNRFSGSKSGNTASLTISGLQAEDESDYYCSSYTSTFSVVFGGGTKVTVLG = 15

IN: Recorded IC50 of GIL45 IgG (non-germlined parent) (antibody, V domains shown, Human IgG4 heavy chain constant domain) VH: QMQLVQSGGGVVQPGRSLRLSCAASGFTFSNYGMYWVRQAPGKGLEWVAHIWYDGSNEKYADSVKGRMTVSRDNSRNTLYLQMNSLRAEDTAVYYCATEQHWITAFDIWGKGTLVTVSS VL: QSVLTQPASVSGSPGQSITISCTGTSSDVGGYNYVSWYQQHPGKAPKLMIYEGSKRPSGVSNRFSGSKSGNTASLTISGLQAEDEADYYCSSYTTRSTRVFGGGTKLTVLG , please.
OUT: 180

IN: # query: IC50 of entry GIL16 IgG (non-germlined parent) (antibody, V domains shown, Human IgG4 heavy chain constant domain) VH: QVQLVESGAEVKKPGASVKVSCKASGYTFTSYGISWVRQAPGQGLEWMGWISAYTGNTNYAQKFQGRVTMTTDTSTSTAYMELRSLRSDDTAVYYCARDRGYYDAFDIWGQGTLVTVSS VL: DIQMTQSPSTLSASIGDRVTITCRASEGIYHWLAWYQQKPGKAPKLLIYKASSLASGAPSRFSGSGSGTDFTLTISSLQPDDFATYYCQQYSNYPLTFGGGTKLEIKR
OUT: 10
